# protocolDescription: Bioavailability and pharmacokinetics in normal rats
# Type: in vivo, rat
# cond: female, CD, rat, plasma, po, 50 mg/kg, rat plasma, salt solution
Where a name gives a salt, the structure may show the parent alone.
observationType: MRT (h)

| compound | unitLabel | valueMeasured |
| --- | --- | --- |
| CC(C)c1ccc2oc3nc(N)c(C(=O)O)cc3c(=O)c2c1 [Amlexanox (salt), sodium salt] | h | 7.28 |

* * *

# protocolDescription: Bioavailability and pharmacokinetics in normal rats
# Assay type: in vivo, rat
# cond: female, CD, rat, plasma, po, 50 mg/kg, rat plasma, acid suspended in 1% methyl cellulose

| lineNotation | AUC |
| --- | --- |
| CC(C)c1ccc2oc3nc(N)c(C(=O)O)cc3c(=O)c2c1 | 2380 ng·h/mL |
